Cited source: PubChem BioAssay (NCI)

So I've got a bunch of molecules here, and I need their GI50 values.
System: MOLT-4 leukemia
protocol_text: NCI tumour cell line growth inhibition, 48 h

Previously resolved entries follow.
1) Cc1ccc(N)cc1[As]=[As]c1cc(N)ccc1C (stereo not drawn); 1940 nM
2) O=C1/C(=C\c2ccc(F)cc2)CN(C(=O)c2ccccc2F)C/C1=C\c1ccc(F)cc1; 1720 nM
3) C[C@@H](Nc1cc(F)cc(F)c1)c1cc(C(=O)N(C)C)cc2c(=O)cc(N3CCOCC3)oc12; 2060 nM
4) COC(=O)C1C(C(=O)O)C2(c3ccccc3)C(=O)C1(c1ccccc1)C(c1ccccc1)=C2c1ccccc1 (stereo not drawn); 14500 nM
5) COc1cc(-c2nn(-c3ccc(NC(=O)Nc4cc(C(F)(F)F)cc(C(F)(F)F)c4)cc3)cc2-c2ccncc2)ccc1Cl; 3280 nM
6) CN(C)c1ccc(/C=C(\C#N)c2cc3ccccc3[nH]2)cc1; 906 nM
7) Cc1ccc(C[As+](c2ccccc2)(c2ccccc2)c2ccccc2)cc1; 2410 nM

Lab note: next molecule to report on.
Quick note, GI50 for Cn1ncc(C#N)c1-c1ccc2c(c1)CN([C@H](CN)Cc1cccc(F)c1)C2=O landed at 413 nM

====

Test system: EKVX NSCLC
protocol_text: NCI tumour cell line growth inhibition, 48 h
Please go through the items and note down their TGI.

Worked examples follow.
1) NC(=O)c1c(NC(=O)c2cccs2)sc2c1CCC(=O)C2; 87.1 µM
2) CCN(CC)C(=O)CCn1cc(F)c(=O)[nH]c1=O; > 100 µM
3) O=C(O)CCC(NC(=O)c1ccc(Nc2cnc3cc(C(F)(F)F)ccc3n2)cc1)C(=O)O (stereo not given); > 100 µM
4) O=C(c1cscc1CCc1ccccc1)c1cscc1CCc1ccccc1; > 100 µM

# context switch: different compound, same TGI
TGI measured on COC(=O)[C@@H]1C[C@@H](O)CN1C(=O)c1ccc([N+](=O)[O-])cc1[N+](=O)[O-] = > 100 µM

====

System: A498 renal
protocol_text: NCI tumour cell line growth inhibition, 48 h
reported_endpoint: TGI

Each molecule below has a recorded value; state its TGI.
1. CC(C)(C)OC(=O)N(O)[C@@H]1CC[C@H](n2cnc3c(N)ncnc32)C1
2. CCN(CC)CCNC(=O)c1cccc2c1-c1ccccc1C2=O
3. O=c1[nH]c(=O)c2c([nH]1)[nH]c1ccc(Br)cc12

1. > 100 µM
2. > 100 µM
3. > 100 µM

====

System: MALME-3M melanoma
protocol_text: NCI tumour cell line growth inhibition, 48 h
reported_endpoint: TGI
Please make sure the unit comes right after the number.

Answered cases to consult:
1) CC12OC(CC(O)C1O)n1c3ccccc3c3c4c(c5c6ccccc6n2c5c31)C(=O)N(CCN1CCOCC1)C4=O (configuration not stated); 5.27 µM
2) CC(=O)[O-].CC(=O)[O-].O=C(N/N=C/c1cc(Cl)cc(Cl)c1[OH2+])c1ccncc1.[Mn+2]; 18 µM
3) O=C1/C(=C\c2ccc(F)cc2)CN(C(=O)c2ccccc2F)C/C1=C\c1ccc(F)cc1; 4.09 µM
4) CCOC(=O)C1=C(C)N(c2ccc(Cl)cc2)C2(O)C=CC(=O)C3=C(O)c4ccccc4C(=O)C312 (configuration not stated); 4.53 µM
5) CCN(CC)C1Oc2cc3c(cc2C(c2cc(OC)c(O)c(OC)c2)C1C)OCO3 (configuration not stated); 30 µM
6) COc1ccc(OC)c(Nc2nc3nonc3nc2Nc2cccc(Br)c2)c1; 5.52 µM

Lab note: next compound to report on.
Measured TGI (MALME-3M melanoma), entry CC1(C)Cc2c(sc3[nH]c(=S)[nH]c(=S)c23)CS1 : 75.6 µM

====

System: SK-MEL-28 melanoma
protocol_text: NCI tumour cell line growth inhibition, 48 h
Record form. Attribute: TGI. Fill in for each entry.

Worked cases, TGI given:
1. COc1ccc2c(c1)C(=Nc1ccc(F)c(Cl)c1)c1c-2c(Nc2ccc(F)c(Cl)c2)nc2ccccc12; > 100 µM
2. C=C(COCO)C(C)=O; 32 µM
3. c1ccc(-c2[nH]ncc2-c2ccnc(-c3ccc(OCCN4CCOCC4)cc3)c2)nc1; > 25 µM

For each of the compounds below, state TGI.
1. O=S(=O)(NC1=NCCN1C(=S)SN1CCn2c1nsc2=S)c1ccc(Oc2ccccc2)cc1
2. CC(=O)OC1CCC2OOC1O2 (centres undefined)
3. CCOc1cc(-c2nncn2C)ccc1Nc1ncc2cc(C)nc(NCC(C)(C)C)c2n1
4. O/N=C(\CC(O)(C(F)(F)F)C(F)(F)F)c1cccs1

> 100 µM
> 100 µM
> 100 µM
> 10 µM

Below is a list of compounds. For each, state its recorded TGI.
1. CC(C)c1oc(=O)cc2c1C(O)C1OC(=O)C3(C)C(O)C4OC4C2(C)C13 (centres undefined)
2. CC(=Nc1ccc(N(C)C)cc1)c1ccccc1

["12.7 µM", "> 100 µM"]

For every item below, please supply its TGI.
1. C/C=C(\N=C=S)C(=O)OC1C(COC(C)=O)OC([C@]2(O)CC(=O)C(=N)C(C(=O)O)=C2O)C(O)C1OC1CC(OC)C(O)([C@@H](C)OC(=O)[C@@H](C)CC)C(C)O1 (some centres undefined)
2. O=C(NC1CC1)c1c(O)[nH]c(=S)[nH]c1=O

1. 18.5 µM
2. > 100 µM

Give measured TGI for every item shown.
1. N#Cc1c(Cl)cc(C#N)n2c1nc1ccccc12
2. S=C1NC2=C(CSC/C2=C\c2ccc(Cl)cc2)C(c2ccc(Cl)cc2)N1 (centres undefined)

["26.5 µM", "> 100 µM"]

Would you be so kind as to report TGI for each listed record?
1. CCOC(=O)c1ncn(CCc2ccc(Cl)cc2)c1C
2. CC(C)(C)OC(=O)N(O)[C@@H]1CC[C@H](n2cnc3c(N)ncnc32)C1
3. CC(=O)OCC1OC(n2cccnc2=O)C(OC(C)=O)C1OC(C)=O (centres undefined)
4. COc1cc2c(cc1OC)C(C(CCCCCC(CCC(C)C)C1NCCc3cc(OC)c(OC)cc31)CCC(C)C)NCC2 (centres undefined)

1. > 100 µM
2. > 100 µM
3. > 100 µM
4. 3.28 µM

// each listed compound needs a value for TGI
1. CC(=O)[O-].CC(=O)[O-].O=C(N/N=C/c1cc(Cl)cc(Cl)c1[OH2+])c1ccncc1.[Mn+2]
2. CCCCC(=O)N(c1ccc(Nc2c3ccccc3nc3cc([N+](=O)[O-])ccc23)cc1)S(C)(=O)=O

1: 25 µM; 2: 36.6 µM

====

Test system: OVCAR-5 ovarian
protocol_text: NCI tumour cell line growth inhibition, 48 h
Kindly state TGI for each of the entries shown.

Use the examples below as a reference point.
1. CC[C@@H](C)/C=C(C)/C=C/C(=O)c1c(O)c(-c2ccc(OC(=O)[C@@]34CC[C@@](C)(C(=O)O3)C4(C)C)cc2)cn(O)c1=O; > 50 µM
2. O=C(c1cscc1CCc1ccccc1)c1cscc1CCc1ccccc1; > 100 µM
3. CC1(C)C(=O)OC(n2cc(F)c(=O)[nH]c2=O)C1=O (stereo not drawn); > 100 µM

Give one value of TGI per listed molecule.
1. Cc1ccc2c(c1)-c1c3c(nn1C)-c1ccccc1SC3O2 (stereo not drawn)
2. COc1ccc(Oc2nc3cc(N)cc(N)c3nc2-c2ccccc2)cc1

> 100 µM
> 100 µM

For each entry beneath this line, provide reported TGI.
1. CC(=O)NS(=O)(=O)c1ccc(NCc2cccc3c(=O)c4ccc(Cl)cc4oc23)cc1
2. Cc1ccc(C[As+](c2ccccc2)(c2ccccc2)c2ccccc2)cc1
3. COc1ccc(CN2C(=O)[C@@H]3Cc4c(OC)c(C)c(OC)c(OC)c4[C@H](/C2=C\c2cc(OC)c(OC)c(C)c2OC)N3C(=O)OC(C)C)cc1

1. > 100 µM
2. > 87.2 µM
3. > 100 µM

====

Test system: CCRF-CEM leukemia
protocol_text: NCI tumour cell line growth inhibition, 48 h
For each of the compounds below, state its TGI.

Completed entries (count: 2):
1. CC(=O)OCC1OC(n2c(C)c(C(C)=O)c(-c3ccco3)c(C#N)c2=S)C(OC(C)=O)C(OC(C)=O)C1OC(C)=O (stereo not drawn); > 100 µM
2. C=C1c2nc3ccccc3n2C=C(c2cccc(Cl)c2)N1Cc1ccc(OC)cc1; > 23.3 µM

Attention now shifts to the item below.
So, CC(=O)OC1CCC2OOC1O2 (stereo not drawn) ? Its TGI was > 100 µM

====

System: UACC-62 melanoma
protocol_text: NCI tumour cell line growth inhibition, 48 h
Would you mind labelling by TGI? At or over 20 µM is y, under is n.

1. O=C(O)CCC(c1ccccc1)(c1ccccc1)c1ccccc1; y

Could you verify whether the entry COc1ccc2c(c1)C(=Nc1ccc(F)c(Cl)c1)c1c-2c(Nc2ccc(F)c(Cl)c2)nc2ccccc12 shows TGI of no less than 20 µM?
y

Record Brc1ccccc2cc(-c3ccccc3)nc1-2 ; criterion: TGI no lower than 20 µM. Met?
y

Decide: TGI of CCCCC(=O)N(c1ccc(Nc2c3ccccc3nc3cc([N+](=O)[O-])ccc23)cc1)S(C)(=O)=O >= 20 µM?
y

Is it the case that Cc1ccc(N2C(=O)C3c4[nH]c5ccc(C)cc5c4C4CCC(C(C)(C)C)CC4C3C2=O)cc1 (stereo unspecified) has TGI reaching or exceeding 20 µM?
y

# check: TGI of COC(=O)[C@]12CC[C@@H](C)[C@H](C)[C@@H]1C1=CC[C@@H]3[C@@]4(C)C(C=O)=C[C@@](C)(CO)[C@@H]4[C@H](O)C[C@@]3(C)[C@]1(C)CC2 is greater than or equal to 20 µM
n

Quick check, TGI >= 20 µM? Nc1nc(SCC(=O)c2ccccc2)c2[nH]cnc2n1
y

Hi team, for CC(=O)[O-].CC(=O)[O-].O=C(N/N=C/c1cc(Cl)cc(Cl)c1[OH2+])c1ccncc1.[Mn+2] , is the recorded TGI at or above 20 µM?
n

# bool: TGI of N#C/C(=C\c1cc(O)c(O)c(O)c1)C(N)=O >= 20 µM
y

State whether the measured TGI reaches 20 µM, counting equality as reaching it, for O=Cc1ccc2ccocc1-2
y

Quick check, TGI >= 20 µM? O=c1[nH]c(=O)c2c([nH]1)[nH]c1ccc(Br)cc12
y
